system: VchCAST RNA-guided transposition machinery (E. coli BL21(DE3) host, lacZ target); test: relative integration efficiency (T-LR orientation) vs wild-type transposon end (log2 (normalized fold change)); transposon end mutated: right end (5 bp flank + 75 bp right end); higher = more efficient transposition
Consider the following sequences; for each one, report its relative integration efficiency (log2).

// below: answered sequences
[[record]]
sequence_chain = "ACATTTGTTGATACAACCATCAAATGGTAATTCCACCCCTACATTGATAATTATCACACCCAATTTAACTATAACGCTCTGATCATAGTCAGACCAACATTGCTACGACCCGTATTCGCACCGACAC"
recorded_measurement = -3.06

[[record]]
sequence_chain = "ACATTTGTTGATACAACCATAAAATGATAATTACCCCCATAAATTGATAATTATCCCACCCAATTTAACTATAACGCTCTGATCATAGTCAGACCAACATTGCTACGACCCGTATTCGCACCGACAC"
recorded_measurement = 2.06


INPUT: Entry ACATTTGTTGATACACCCATAAATTGATATTGCCAACCATAAAATGATAATTATCACACCCATAAATTGATATTGCCTCTGATCATAGTCAGACCAACATTGCTACGACCCGTATTCGCACCGACAC : reported relative integration efficiency (log2) = ?
OUTPUT: -0.203
